biological target: Tyrosine-protein kinase Lck (Homo sapiens, UniProt P06239); further: in the data inactive means no Kd found up to 30 µM
Sequence (P06239 whole entry): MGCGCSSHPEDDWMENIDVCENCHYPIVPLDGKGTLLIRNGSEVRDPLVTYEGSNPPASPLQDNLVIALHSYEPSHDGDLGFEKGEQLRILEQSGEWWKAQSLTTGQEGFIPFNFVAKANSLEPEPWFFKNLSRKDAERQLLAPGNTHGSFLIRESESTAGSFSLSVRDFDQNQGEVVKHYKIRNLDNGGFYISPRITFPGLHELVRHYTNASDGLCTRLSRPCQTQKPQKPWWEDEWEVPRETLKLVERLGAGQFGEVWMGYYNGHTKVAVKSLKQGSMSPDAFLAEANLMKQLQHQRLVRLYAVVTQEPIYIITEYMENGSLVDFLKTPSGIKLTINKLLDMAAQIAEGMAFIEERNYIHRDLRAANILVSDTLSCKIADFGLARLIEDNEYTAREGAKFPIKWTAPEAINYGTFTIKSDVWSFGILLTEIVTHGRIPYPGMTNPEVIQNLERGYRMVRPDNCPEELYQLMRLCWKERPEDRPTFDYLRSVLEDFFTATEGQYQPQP
Active and inactive are the calls of the source.
In this exercise, the only acceptable responses are active, inactive

Example cases with answers are listed next.
CNS(=O)(=O)Nc1nccc(Cc2c(C)c3ccc(Oc4ncccn4)cc3oc2=O)c1F inactive
CN1CCC(COc2cnc(-c3cccc(Cn4nc(-c5cccc(C#N)c5)ccc4=O)c3)nc2)CC1 inactive
O=C(c1ccc(F)c(F)c1Nc1ccc(I)cc1F)N1CC(O)([C@@H]2CCCCN2)C1 inactive

Lookup: Answer briefly: the call reported for `COc1ccc(-c2ccc3c(N4CCOC[C@@H]4C)nc(N4CCOC[C@@H]4C)nc3n2)cc1CO` in this assay.
Found: inactive

====

Entries annotated with measured Kd
Target: Calcium/calmodulin-dependent protein kinase type IV (Homo sapiens, UniProt Q16566); further: in the data inactive means no Kd found up to 30 µM
Sequence (Q16566 whole entry): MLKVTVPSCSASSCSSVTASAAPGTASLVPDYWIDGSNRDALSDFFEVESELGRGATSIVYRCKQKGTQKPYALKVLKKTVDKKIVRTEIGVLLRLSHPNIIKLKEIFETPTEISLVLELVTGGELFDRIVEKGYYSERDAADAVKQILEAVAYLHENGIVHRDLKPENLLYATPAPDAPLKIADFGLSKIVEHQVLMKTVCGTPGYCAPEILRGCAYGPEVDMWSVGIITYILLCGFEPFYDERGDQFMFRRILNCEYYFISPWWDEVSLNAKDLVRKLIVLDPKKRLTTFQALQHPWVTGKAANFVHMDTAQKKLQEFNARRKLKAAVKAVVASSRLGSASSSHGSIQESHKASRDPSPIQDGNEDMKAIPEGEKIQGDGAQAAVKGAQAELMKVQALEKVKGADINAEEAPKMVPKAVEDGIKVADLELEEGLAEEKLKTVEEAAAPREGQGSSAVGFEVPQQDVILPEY
The source made the active and inactive calls.

compound	Kd
CCn1c(=O)c(-c2cc[nH]n2)cc2c(C)nc(N)nc21 [VOXTALISIB]	> 30 µM (inactive)

Lookup: Would you please give the reported Kd of Cc1cc([C@@H](C)Nc2ccccc2C(=O)O)c2nc(N3CCOCC3)cc(=O)n2c1 [AZD-6482] with Calcium/calmodulin-dependent protein kinase type IV (Homo sapiens, UniProt Q16566)?
Found: > 30 µM (inactive)

Lookup: Would you please give the reported Kd of O=C(Nc1cccc(Cl)c1)Nc1ncc(CCNc2ncnc3ccsc23)s1 [SNS-314] with Calcium/calmodulin-dependent protein kinase type IV (Homo sapiens, UniProt Q16566)?
Found: > 30 µM (inactive)

Lookup: Would you please give the reported Kd of Cc1c(F)cc(C(=O)NC2CC2)cc1-c1ccc(C(=O)NCC(C)(C)C)cn1 [LOSMAPIMOD] with Calcium/calmodulin-dependent protein kinase type IV (Homo sapiens, UniProt Q16566)?
Found: > 30 µM (inactive)

Lookup: Would you please give the reported Kd of CNC(=O)c1ccc(-c2cnc3ncc(Cc4ccc5ncccc5c4)n3n2)cc1F [CAPMATINIB] with Calcium/calmodulin-dependent protein kinase type IV (Homo sapiens, UniProt Q16566)?
Found: > 30 µM (inactive)

Lookup: Would you please give the reported Kd of CC[C@H](Nc1ncnc2[nH]cnc12)c1nc2cccc(F)c2c(=O)n1-c1ccccc1 [IDELALISIB] with Calcium/calmodulin-dependent protein kinase type IV (Homo sapiens, UniProt Q16566)?
Found: > 30 µM (inactive)

Lookup: Would you please give the reported Kd of Cn1ncc(Cl)c1-c1cc(C(=O)N[C@H](CN)Cc2cccc(F)c2)sc1Cl [AFURESERTIB] with Calcium/calmodulin-dependent protein kinase type IV (Homo sapiens, UniProt Q16566)?
Found: > 30 µM (inactive)

Lookup: Would you please give the reported Kd of CC[C@@H]1C(=O)N(C)c2cnc(Nc3ccc(C(=O)N[C@H]4CC[C@H](N5CCN(CC6CC6)CC5)CC4)cc3OC)nc2N1C(C)C [VOLASERTIB] with Calcium/calmodulin-dependent protein kinase type IV (Homo sapiens, UniProt Q16566)?
Found: > 30 µM (inactive)

Lookup: Would you please give the reported Kd of CN1CCC(CNc2ccc3ncc(-c4cccc(OC(F)(F)F)c4)n3n2)CC1 [SGI-1776] with Calcium/calmodulin-dependent protein kinase type IV (Homo sapiens, UniProt Q16566)?
Found: > 30 µM (inactive)

Lookup: Would you please give the reported Kd of CCc1cnn2c(NCc3ccc[n+]([O-])c3)cc(N3CCCC[C@H]3CCO)nc12 [DINACICLIB] with Calcium/calmodulin-dependent protein kinase type IV (Homo sapiens, UniProt Q16566)?
Found: > 30 µM (inactive)

Lookup: Would you please give the reported Kd of Cc1ccc(NC(=O)c2ccc(CN3CC[C@H](N(C)C)C3)c(C(F)(F)F)c2)cc1Nc1nccc(-c2cncnc2)n1 [BAFETINIB] with Calcium/calmodulin-dependent protein kinase type IV (Homo sapiens, UniProt Q16566)?
Found: > 30 µM (inactive)

Lookup: Would you please give the reported Kd of Cn1cc(-c2ccc3nnc(C(F)(F)c4ccc5ncccc5c4)n3n2)cn1 [JNJ-38877605] with Calcium/calmodulin-dependent protein kinase type IV (Homo sapiens, UniProt Q16566)?
Found: > 30 µM (inactive)

Lookup: Would you please give the reported Kd of `Cc1ccc(S(=O)(=O)Nc2nc3ccccc3nc2Nc2ccc3nsnc3c2)cc1` with Calcium/calmodulin-dependent protein kinase type IV (Homo sapiens, UniProt Q16566)?
Found: > 30 µM (inactive)

Lookup: Would you please give the reported Kd of O=C1NC(=O)/C(=C/c2ccc3nccc(-c4ccncc4)c3c2)S1 [GSK-1059615] with Calcium/calmodulin-dependent protein kinase type IV (Homo sapiens, UniProt Q16566)?
Found: > 30 µM (inactive)

Lookup: Would you please give the reported Kd of Cn1cc(-c2ccc(F)c(C(F)(F)F)c2)nc1C1CCN(c2ncnc3[nH]ncc23)CC1 [LY-2584702] with Calcium/calmodulin-dependent protein kinase type IV (Homo sapiens, UniProt Q16566)?
Found: > 30 µM (inactive)

Lookup: Would you please give the reported Kd of COc1cc2nccc(Oc3ccc(NC(=O)Nc4cc(C)on4)c(Cl)c3)c2cc1OC [TIVOZANIB] with Calcium/calmodulin-dependent protein kinase type IV (Homo sapiens, UniProt Q16566)?
Found: > 30 µM (inactive)

Lookup: Would you please give the reported Kd of CCCS(=O)(=O)Nc1ccc(F)c(C(=O)c2c[nH]c3ncc(-c4ccc(Cl)cc4)cc23)c1F [VEMURAFENIB] with Calcium/calmodulin-dependent protein kinase type IV (Homo sapiens, UniProt Q16566)?
Found: > 30 µM (inactive)

Lookup: Would you please give the reported Kd of C1=C/COCc2cc(ccc2OCCN2CCCC2)Nc2nccc(n2)-c2cccc(c2)COC/1 [PACRITINIB] with Calcium/calmodulin-dependent protein kinase type IV (Homo sapiens, UniProt Q16566)?
Found: > 30 µM (inactive)

Lookup: Would you please give the reported Kd of Cc1cc(Nc2cc(N3CCN(C)CC3)nc(/C=C/c3ccccc3)n2)n[nH]1 [ENMD-2076] with Calcium/calmodulin-dependent protein kinase type IV (Homo sapiens, UniProt Q16566)?
Found: > 30 µM (inactive)

====

target: Calcium/calmodulin-dependent protein kinase type II subunit delta (Homo sapiens, UniProt Q13557); further: in the data inactive means no Kd found up to 30 µM
Sequence (Q13557 whole entry): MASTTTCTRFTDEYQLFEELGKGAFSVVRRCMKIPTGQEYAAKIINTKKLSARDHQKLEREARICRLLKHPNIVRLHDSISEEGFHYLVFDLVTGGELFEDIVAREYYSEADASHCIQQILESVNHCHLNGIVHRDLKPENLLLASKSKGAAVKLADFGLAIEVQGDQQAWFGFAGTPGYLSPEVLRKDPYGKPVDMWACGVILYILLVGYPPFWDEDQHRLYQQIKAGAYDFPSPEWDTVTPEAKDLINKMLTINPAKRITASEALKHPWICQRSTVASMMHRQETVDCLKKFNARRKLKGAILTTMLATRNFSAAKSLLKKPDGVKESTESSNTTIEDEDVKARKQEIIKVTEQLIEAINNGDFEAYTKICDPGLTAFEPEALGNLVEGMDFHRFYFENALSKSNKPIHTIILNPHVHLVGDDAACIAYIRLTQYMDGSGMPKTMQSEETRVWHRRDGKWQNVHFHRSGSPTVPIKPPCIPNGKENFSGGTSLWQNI
The source made the active and inactive calls.
In this exercise, the only acceptable responses are label 1 for active, label 0 for inactive

Example cases with answers are listed next.
C1=C/COCc2cc(ccc2OCCN2CCCC2)Nc2nccc(n2)-c2cccc(c2)COC/1 label 0
COCCNCc1ccc(-c2cc3nccc(Oc4ccc(NC(=S)NC(=O)Cc5ccc(F)cc5)cc4F)c3s2)nc1 label 0
CCS(=O)(=O)N1CC(CC#N)(n2cc(-c3ncnc4[nH]ccc34)cn2)C1 label 1

Moving on to another compound below.
Lookup: Answer briefly: the call reported for `COc1ccc(-c2ccc3c(N4CCOC[C@@H]4C)nc(N4CCOC[C@@H]4C)nc3n2)cc1CO` in this assay.
Found: label 0

====

target: AP2-associated protein kinase 1 (Homo sapiens); further: in the data inactive means no Kd found up to 30 µM
Sequence (Q2M2I8 whole entry): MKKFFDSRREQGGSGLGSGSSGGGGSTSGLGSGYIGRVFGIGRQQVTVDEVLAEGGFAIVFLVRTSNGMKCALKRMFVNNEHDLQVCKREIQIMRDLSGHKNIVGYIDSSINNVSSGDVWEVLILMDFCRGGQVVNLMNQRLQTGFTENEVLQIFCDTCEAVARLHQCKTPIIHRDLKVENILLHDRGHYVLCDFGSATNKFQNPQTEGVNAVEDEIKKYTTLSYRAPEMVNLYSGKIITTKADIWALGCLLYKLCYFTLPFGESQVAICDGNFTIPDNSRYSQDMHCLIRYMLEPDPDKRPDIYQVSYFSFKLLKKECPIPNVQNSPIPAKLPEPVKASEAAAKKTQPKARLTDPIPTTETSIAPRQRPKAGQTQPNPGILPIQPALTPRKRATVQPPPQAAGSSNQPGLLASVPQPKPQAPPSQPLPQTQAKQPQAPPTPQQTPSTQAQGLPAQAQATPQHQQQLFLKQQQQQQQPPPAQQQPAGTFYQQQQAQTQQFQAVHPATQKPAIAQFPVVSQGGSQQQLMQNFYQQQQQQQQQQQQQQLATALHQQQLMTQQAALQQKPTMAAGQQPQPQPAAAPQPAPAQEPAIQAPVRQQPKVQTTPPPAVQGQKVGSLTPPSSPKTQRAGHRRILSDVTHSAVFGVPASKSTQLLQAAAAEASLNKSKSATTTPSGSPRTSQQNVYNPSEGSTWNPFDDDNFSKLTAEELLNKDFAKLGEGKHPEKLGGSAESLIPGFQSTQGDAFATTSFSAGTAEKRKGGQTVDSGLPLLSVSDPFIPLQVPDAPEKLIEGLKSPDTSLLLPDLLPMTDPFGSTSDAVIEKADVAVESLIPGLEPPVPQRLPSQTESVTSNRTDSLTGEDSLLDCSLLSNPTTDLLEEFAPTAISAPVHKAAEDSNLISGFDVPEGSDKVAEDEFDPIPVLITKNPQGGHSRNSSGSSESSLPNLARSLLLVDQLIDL
Calls of active or inactive are those of the source.
In this exercise, the only acceptable responses are 1 = active, 0 = inactive

compound	target_entity	category_label
COC(=O)N[C@@H](C)CNc1nccc(-c2cn(C(C)C)nc2-c2cc(Cl)cc(NS(C)(=O)=O)c2F)n1	AP2-associated protein kinase 1 (Homo sapiens)	0
C[C@@H]1CN(Cc2ccc(F)cc2)[C@@H](C)CN1C(=O)c1cc2c(C(=O)C(=O)N(C)C)cn(C)c2cc1Cl	AP2-associated protein kinase 1 (Homo sapiens)	0
CC[C@H](Nc1ncnc2[nH]cnc12)c1nc2cccc(F)c2c(=O)n1-c1ccccc1	AP2-associated protein kinase 1 (Homo sapiens)	0
CNS(=O)(=O)Nc1nccc(Cc2c(C)c3ccc(Oc4ncccn4)cc3oc2=O)c1F	AP2-associated protein kinase 1 (Homo sapiens)	0
COc1cc2nccc(Oc3ccc(NC(=O)Nc4cc(C)on4)c(Cl)c3)c2cc1OC	AP2-associated protein kinase 1 (Homo sapiens)	0

Lookup: Answer briefly: the call reported for `CNC(=O)c1ccc(C)c(-n2c(C)cc(OCc3ccc(F)cc3F)c(Br)c2=O)c1` in this assay.
Found: 0

Lookup: Answer briefly: the call reported for `CCCS(=O)(=O)Nc1ccc(F)c(C(=O)c2c[nH]c3ncc(-c4ccc(Cl)cc4)cc23)c1F` in this assay.
Found: 0

Lookup: Answer briefly: the call reported for COC(=O)[C@@]1(O)C[C@H]2O[C@]1(C)n1c3ccccc3c3c4c(c5c6ccccc6n2c5c31)C(=O)NC4 [K-252A] in this assay.
Found: 1

Lookup: Answer briefly: the call reported for `C[C@@H](c1ccc2nccn2c1)n1nnc2ncc(-c3cnn(C)c3)nc21` in this assay.
Found: 0

Lookup: Answer briefly: the call reported for `Cc1cc([C@@H](C)Nc2ccccc2C(=O)O)c2nc(N3CCOCC3)cc(=O)n2c1` in this assay.
Found: 0

Lookup: Answer briefly: the call reported for `CC(C)Nc1cc(-c2c[nH]c(C(=O)N[C@H](CO)c3cccc(Cl)c3)c2)c(Cl)cn1` in this assay.
Found: 0

Lookup: Answer briefly: the call reported for Cc1cc2c(F)c(Oc3ncnn4cc(OC[C@@H](C)OC(=O)[C@H](C)N)c(C)c34)ccc2[nH]1 [BRIVANIB ALANINATE] in this assay.
Found: 0
